test system: a variety of cell types that are representative of different cancers; assay: Alamar Blue cell viability assay, variety of cell types representative of different cancers (Tables 12-14); assay type: cell-based; settings: Homo sapiens, HT-29, HT-29, Colorectal, Epithelial; read-out: IC50
Observable: pIC50
Note: pIC50 values are expressed as the negative base-10 logarithm of concentration in M.

Here's what some known entries look like.
Looking for the measured pIC50 of `O=C(NCCNC1CC1)c1c(=O)c2ccc(N3CCOCC3)nc2n2c1sc1ccccc12` , can you help?
6.99

Also `Cc1cnc(CNC(=O)c2c(=O)c3ccc(N4CCCN(C)CC4)nc3n3c2sc2ccccc23)cn1` ?
7.38

Kindly consider the entry below.
Looking for the measured pIC50 of `Cc1cnc(CNC(=O)c2c(=O)c3ccc(N4CCN(C)CC4)nc3n3c2sc2ccccc23)cn1` , can you help?
7.14
